Test system: astro (control astrocytes)
Assay: Drug repurposing screens with cells derived from glioblastoma tumor samples (AID 1345199); further: nearly all actives have a fitted effect of over 40% in size
Details: viability, ATP luminescence, 48 h; series mostly up to 45.9 µM
Records with an inconclusive call do not appear. Activity calls are given as the source filed them. The call rests on the fitted dose curve; in most records, active means well fitted inhibition curve with a large enough effect; inconclusive means small, poorly fitted or top-dose-only effect; inactive means flat fitted curve, though single readings scatter.
Please reply with one of these outcomes: active, inactive

Recorded results for 5 compounds are shown here.
Prompt: Per the assay record, what outcome was assigned to `Cc1[nH]cnc1CN1CCc2c(c3ccccc3n2C)C1=O` ?
Response: inactive

Prompt: Per the assay record, what outcome was assigned to CN(C)[C@@H]1C(=O)C(C(=O)NCN2CCCC2)=C(O)[C@@]2(O)C(=O)C3=C(O)c4c(O)cccc4[C@@](C)(O)C3C[C@@H]12 (stereo partly specified) ?
Response: inactive

Prompt: Per the assay record, what outcome was assigned to `c1ccc2sc(SN3CCOCC3)nc2c1` ?
Response: inactive

Prompt: Per the assay record, what outcome was assigned to `COC(=O)[C@H]1[C@H]2C[C@@H]3c4[nH]c5cc(OC)ccc5c4CCN3C[C@H]2C[C@@H](OC(=O)/C=C/c2cc(OC)c(OC)c(OC)c2)[C@@H]1OC` ?
Response: inactive

Prompt: Per the assay record, what outcome was assigned to CN1[C@@H]2CC[C@H]1CC(OC(=O)C(CO)c1ccccc1)C2 (stereo partly specified) ?
Response: inactive

Further cases:
Prompt: Per the assay record, what outcome was assigned to CC(C(=O)O)c1ccc2c(c1)[nH]c1ccc(Cl)cc12 (stereo unspecified) ?
Response: inactive

Prompt: Per the assay record, what outcome was assigned to `O=C(O)Cc1ccc(-c2ccccc2)cc1` ?
Response: inactive

Prompt: Per the assay record, what outcome was assigned to `Nc1ccc([N+](=O)[O-])cc1O` ?
Response: inactive

Prompt: Per the assay record, what outcome was assigned to `N=C1N=C(N)c2cc3ccccc3cc21` ?
Response: active

Prompt: Per the assay record, what outcome was assigned to `COc1ccc(-c2cc(=S)ss2)cc1` ?
Response: inactive

Prompt: Per the assay record, what outcome was assigned to `Cc1onc(-c2c(F)cccc2Cl)c1C(=O)N[C@@H]1C(=O)N2[C@@H]1SC(C)(C)[C@@H]2C(=O)O` ?
Response: inactive

====

Test: qHTS for differential inhibitors of proliferation of Plasmodium falciparum line Dd2 (AID 1882); further: nearly all actives have a fitted effect of over 65% in size
Conditions: Plasmodium falciparum Dd2 proliferation inhibition; series mostly up to 28.7 µM
Results filed as inconclusive are left out. Calls of active or inactive are those of the source. Calls come from the whole dose curve; as a rule, active = well fitted inhibition curve with a large enough effect; inconclusive = small, poorly fitted or top-dose-only effect; inactive = flat fitted curve, though single readings scatter.
Please reply with one of these outcomes: yes (1) for active, no (0) for inactive

Recorded results for 2 molecules are shown here.
Prompt: Per the assay record, what outcome was assigned to `O=C(Nc1cccc(C(=O)Nc2ccc(S(=O)(=O)O)c3cc(S(=O)(=O)O)cc(S(=O)(=O)O)c23)c1)Nc1cccc(C(=O)Nc2ccc(S(=O)(=O)O)c3cc(S(=O)(=O)O)cc(S(=O)(=O)O)c23)c1` ?
Response: no (0)

Prompt: Per the assay record, what outcome was assigned to `O=C(O)CC[C@@H](C(=O)O)N1C(=O)c2ccccc2C1=O` ?
Response: no (0)

Further cases:
Prompt: Per the assay record, what outcome was assigned to CN1CCc2cccc3c2C1Cc1ccc(O)c(O)c1-3 (stereo unspecified) ?
Response: yes (1)

Prompt: Per the assay record, what outcome was assigned to OCC1O[C@H](O)C(Cl)C(O)C1O (stereo partly specified) ?
Response: no (0)

Prompt: Per the assay record, what outcome was assigned to CC(COc1ccc(/C=C/c2ccccc2)cc1)[N+](C)(C)C (stereo unspecified) ?
Response: yes (1)

Prompt: Per the assay record, what outcome was assigned to CC(C)NCC(O)COc1cccc2ccccc12 (stereo unspecified) ?
Response: yes (1)

Prompt: Per the assay record, what outcome was assigned to CCCCCC(O)c1cccc(OCc2ccc3ccccc3n2)c1 (stereo unspecified) ?
Response: yes (1)

Prompt: Per the assay record, what outcome was assigned to `CN(C)C(N)=NCCC[C@H](N)C(=O)O` ?
Response: no (0)

====

System: CP238
Assay: qHTS profiling for inhibitors of Plasmodium falciparum proliferation (AID 504749); further: nearly all actives have a fitted effect of over 60% in size
Settings: P. falciparum in erythrocytes, SYBR Green DNA, 72 h; series mostly up to 28.7 µM
Inconclusive results are not listed. Calls of active or inactive are those of the source. Calls follow the shape of the dose curve; as a rule, active = well fitted inhibition curve with a large enough effect; inconclusive = small, poorly fitted or top-dose-only effect; inactive = flat fitted curve, though single readings scatter.
experimental-endpoint: outcome

Recorded outcome, per entry:
Prompt: Name the recorded outcome for `CCOC(=O)c1ccccc1O` .
Response: inactive

Prompt: Name the recorded outcome for `CCCCCCOc1ccccc1C(N)=O` .
Response: inactive

Prompt: Name the recorded outcome for `CCCSc1ccc2nc(NC(=O)OC)[nH]c2c1` .
Response: inactive

Prompt: Name the recorded outcome for `CCCCCC[C@@H](O)C/C=C\CCCCCCCC(=O)O` .
Response: inactive

Prompt: Name the recorded outcome for `CC1(C)S[C@@H]2[C@H](NC(=O)[C@H](NC(=O)N3CCN(S(C)(=O)=O)C3=O)c3ccccc3)C(=O)N2[C@H]1C(=O)O` .
Response: inactive

Prompt: Name the recorded outcome for `O=C(O)c1ccccc1Nc1cccc(C(F)(F)F)c1` .
Response: inactive

Prompt: Name the recorded outcome for `COc1ccc(-c2cc(=S)ss2)cc1` .
Response: inactive

Prompt: Name the recorded outcome for `COc1cc(CNC(=O)CCCC/C=C/C(C)C)ccc1O` .
Response: inactive

Further cases:
Prompt: Name the recorded outcome for `Cc1[nH]cnc1CN1CCc2c(c3ccccc3n2C)C1=O` .
Response: inactive

Prompt: Name the recorded outcome for `CCCOC(=O)c1ccc(O)cc1` .
Response: inactive

Prompt: Name the recorded outcome for `C=CCCCCCCCCC(=O)O` .
Response: inactive

====

Test system: CP265
Assay: qHTS profiling for inhibitors of Plasmodium falciparum proliferation (AID 504749); further: nearly all actives have a fitted effect of over 60% in size
Details: P. falciparum in erythrocytes, SYBR Green DNA, 72 h; series mostly up to 28.7 µM
Records with an inconclusive call do not appear. Activity calls are given as the source filed them. The call rests on the fitted dose curve; in most records, active means well fitted inhibition curve with a large enough effect; inconclusive means small, poorly fitted or top-dose-only effect; inactive means flat fitted curve, though single readings scatter.
Please reply with one of these outcomes: active, inactive

Prompt: Per the assay record, what outcome was assigned to `CC1(C)[C@@H](O)CC[C@]2(C)[C@H]3C(=O)C=C4[C@@H]5C[C@@](C)(C(=O)O)CC[C@]5(C)CC[C@@]4(C)[C@]3(C)CC[C@@H]12` ?
Response: inactive

Prompt: Per the assay record, what outcome was assigned to `[O-][n+]1ccccc1SSc1cccc[n+]1[O-]` ?
Response: active

Prompt: Per the assay record, what outcome was assigned to `C=CCCCCCCCCC(=O)O` ?
Response: inactive

Prompt: Per the assay record, what outcome was assigned to `C#C[C@]1(O)CC[C@H]2[C@@H]3CCc4cc(O)ccc4[C@H]3CC[C@@]21C` ?
Response: inactive

Prompt: Per the assay record, what outcome was assigned to `Clc1ccccc1-c1nc(-c2ccncc2)no1` ?
Response: inactive

Prompt: Per the assay record, what outcome was assigned to `CCCCCCOc1ccccc1C(N)=O` ?
Response: inactive

Prompt: Per the assay record, what outcome was assigned to CN1[C@@H]2CC[C@H]1CC(OC(=O)C(CO)c1ccccc1)C2 (stereo partly specified) ?
Response: inactive

Prompt: Per the assay record, what outcome was assigned to `COc1cc(/C=C/C(=O)N2CCN(CC(=O)N3CCCC3)CC2)cc(OC)c1OC` ?
Response: inactive

Further cases:
Prompt: Per the assay record, what outcome was assigned to `CCCCCC[C@@H](O)C/C=C\CCCCCCCC(=O)O` ?
Response: inactive

Prompt: Per the assay record, what outcome was assigned to `Nc1ccc(O)c(C(=O)O)c1` ?
Response: inactive

Prompt: Per the assay record, what outcome was assigned to `Cc1[nH]cnc1CN1CCc2c(c3ccccc3n2C)C1=O` ?
Response: inactive

====

Test: Cell Viability - LYMP2-015 (AID 971);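 further: cells exposed to compound for 24 h; 0% = DMSO only and full effect = 92 µM tetraoctylammonium bromide; nearly all actives have a fitted effect of over 55% in size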
Details: LYMP2-015 lymphoblastoid cell viability; series mostly up to 92.2 µM
Source text: NIH Chemical Genomics Center [NCGC] NIH Molecular Libraries Screening Centers Network [MLSCN] National Institutes of Environmental Health Sciences [NIEHS] National Toxicology Program [NTP] We have developed a 1536-well cell-based assay for quantitative high throughput screening (qHTS) against a number of cell lines to determine in vitro cytotoxicity of small molecules. […] 8. Detection; Luminescence; Viewlux plate reader […]
Results filed as inconclusive are left out. Calls of active or inactive are those of the source. Calls come from the whole dose curve; as a rule, active = well fitted cell-killing curve with a large enough effect; inconclusive = small, poorly fitted or top-dose-only effect; inactive = flat fitted curve, though single readings scatter.
Please reply with one of these outcomes: class 1 (active), class 0 (inactive)

Recorded results for 3 molecules are shown here.
Prompt: Per the assay record, what outcome was assigned to `NCCO` ?
Response: class 0

Prompt: Per the assay record, what outcome was assigned to `Nc1ccc([N+](=O)[O-])cc1O` ?
Response: class 0

Prompt: Per the assay record, what outcome was assigned to `S=c1[nH]c2ccccc2s1` ?
Response: class 0

Now for another entry.
Prompt: Per the assay record, what outcome was assigned to `Nc1ccc(O)c(C(=O)O)c1` ?
Response: class 0

====

Test system: HaCat
Test: Cytotoxic Profiling of Annotated Libraries Using Quantitative High-Throughput Screening (AID 1296008); further: nearly all actives have a fitted effect of over 60% in size
Settings: Five cell lines viability, CellTiter-Glo ATP luminescence, 48-72 h
Records with an inconclusive call do not appear. Calls of active or inactive are those of the source. The call rests on the fitted dose curve; in most records, active means well fitted inhibition curve with a large enough effect; inconclusive means small, poorly fitted or top-dose-only effect; inactive means flat fitted curve, though single readings scatter.
Please reply with one of these outcomes: active, inactive

Recorded results for 5 compounds are shown here.
Prompt: Per the assay record, what outcome was assigned to `Cc1c(N)c(=O)n(-c2ccccc2)n1C` ?
Response: inactive

Prompt: Per the assay record, what outcome was assigned to `COC(=O)[C@H]1[C@H]2C[C@@H]3c4[nH]c5cc(OC)ccc5c4CCN3C[C@H]2C[C@@H](OC(=O)/C=C/c2cc(OC)c(OC)c(OC)c2)[C@@H]1OC` ?
Response: inactive

Prompt: Per the assay record, what outcome was assigned to `N=C(N)N` ?
Response: inactive

Prompt: Per the assay record, what outcome was assigned to COC(=O)C1=C(C)NC(C)=C(C(=O)OCC(C)=O)C1c1ccccc1[N+](=O)[O-] (stereo not given) ?
Response: inactive

Prompt: Per the assay record, what outcome was assigned to `c1ccc2sc(SN3CCOCC3)nc2c1` ?
Response: inactive

Further cases:
Prompt: Per the assay record, what outcome was assigned to `C#C[C@]1(O)CC[C@H]2[C@@H]3CCc4cc(O)ccc4[C@H]3CC[C@@]21C` ?
Response: active

Prompt: Per the assay record, what outcome was assigned to `[O-][n+]1ccccc1SSc1cccc[n+]1[O-]` ?
Response: active
